tested.system: PARP10cat (Homo sapiens, UniProt Q53GL7)
Sequence (Q53GL7 806-1025 limits assumed): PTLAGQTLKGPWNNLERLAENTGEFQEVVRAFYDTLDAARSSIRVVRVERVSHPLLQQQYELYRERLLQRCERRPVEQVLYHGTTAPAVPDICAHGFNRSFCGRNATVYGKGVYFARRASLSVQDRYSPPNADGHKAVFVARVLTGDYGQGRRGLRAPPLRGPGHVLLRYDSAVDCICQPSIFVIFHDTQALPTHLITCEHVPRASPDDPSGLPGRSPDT
experiment.notes: Inhibition of PARP10cat-mediated ADP-ribosylation of SRPK2 using NAD+ (100 μM)
Assay type: biochemical
assay.context: ADP-ribosylation of SRPK2, NAD+ 100 μM
parameter: PARP10cat pIC50 ± S.E.M.

In the examples that follow, each entry is paired with its recorded PARP10cat pIC50 ± S.E.M..
> print(dat)
                   compound.structure                             tested.system                 parameter  experimental.value
1        Cc1c(-c2ccccc2)ccc2c1CCNC2=O  PARP10cat (Homo sapiens, UniProt Q53GL7)  PARP10cat pIC50 ± S.E.M.         5.80 ± 0.03
2                O=C1NCCc2c(Br)cccc21  PARP10cat (Homo sapiens, UniProt Q53GL7)  PARP10cat pIC50 ± S.E.M.         4.99 ± 0.04
3  Cc1c(-c2cnc3ccccc3c2)ccc2c1CCNC2=O  PARP10cat (Homo sapiens, UniProt Q53GL7)  PARP10cat pIC50 ± S.E.M.         5.75 ± 0.02

*Q* Consider the compound O=C1NCCc2cc(Br)ccc21 . State its measured PARP10cat pIC50 ± S.E.M..
*A* 4.77 ± 0.03

*Q* Consider the compound O=C1NCCc2c1cccc2-c1ccccc1 . State its measured PARP10cat pIC50 ± S.E.M..
*A* 4.46 ± 0.04

*Q* Consider the compound O=C1NCCc2cc(-c3ccccc3)ccc21 . State its measured PARP10cat pIC50 ± S.E.M..
*A* 5.61 ± 0.03

*Q* Consider the compound O=C1NCCc2cc(-c3cccc(F)c3)ccc21 . State its measured PARP10cat pIC50 ± S.E.M..
*A* 5.85 ± 0.03

*Q* Consider the compound Cc1c(-c2ccncc2)ccc2c1CCNC2=O . State its measured PARP10cat pIC50 ± S.E.M..
*A* 5.84 ± 0.03

*Q* Consider the compound Cc1cccc(-c2ccc3c(c2)CCNC3=O)c1 . State its measured PARP10cat pIC50 ± S.E.M..
*A* 5.67 ± 0.02

*Q* Consider the compound Cc1c(-c2cccnc2)ccc2c1CCNC2=O . State its measured PARP10cat pIC50 ± S.E.M..
*A* 5.60 ± 0.04

*Q* Consider the compound Cc1cccc2c1CCNC2=O . State its measured PARP10cat pIC50 ± S.E.M..
*A* 5.01 ± 0.03
